- targetOrTestSystem: VchCAα (Vibrio cholerae)
- Construct: gene VC_A0274
- Sequence (Q9KMP6 21-239 limits assumed): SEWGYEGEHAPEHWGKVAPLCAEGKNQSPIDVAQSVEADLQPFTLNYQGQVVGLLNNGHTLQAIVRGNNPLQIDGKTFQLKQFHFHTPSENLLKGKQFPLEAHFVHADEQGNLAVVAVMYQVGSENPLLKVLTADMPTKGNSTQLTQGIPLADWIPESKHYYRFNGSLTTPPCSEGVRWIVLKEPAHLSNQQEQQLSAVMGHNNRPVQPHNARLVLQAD
- experimentalProtocol: stopped-flow CO2 hydration
- Assay type: biochemical
- runParameters: read-out: Ki (μM)^a / VchCAα; […] h preincubation at […] °C; […] HEPES pH […] NaClO4; prodrug, lactone hydrolysed by CA esterase activity
Ki reference
Supply the numeric figure in µM, leaving out any unit text.

Would you please look over these solved cases?
O=c1oc2ccccc2cc1O :: 290
Nc1ccc2c(C(F)(F)F)cc(=O)oc2c1 :: 95
O=c1ccc2ccccc2o1 :: 94.7
CCOC(=O)Cc1cc(=O)oc2cc(O)ccc12 :: 439

// recorded Ki for O=c1ccc2ccc(O)cc2o1 : 68.5

Input CCOC(=O)c1cc2ccc(O)cc2oc1=O . Output Ki: 432

Input O=c1ccc2cc(O)ccc2o1 . Output Ki: 77.5

Short answer for CCN(CC)c1ccc2c(C)cc(=O)oc2c1 : Ki was 53.9

----------
- targetOrTestSystem: NgCAα (Neisseria gonorrhoeae, UniProt Q50940)
- Construct: gene cah; recombinant, obtained in-house as described earlier
- Sequence (Q50940 27-252): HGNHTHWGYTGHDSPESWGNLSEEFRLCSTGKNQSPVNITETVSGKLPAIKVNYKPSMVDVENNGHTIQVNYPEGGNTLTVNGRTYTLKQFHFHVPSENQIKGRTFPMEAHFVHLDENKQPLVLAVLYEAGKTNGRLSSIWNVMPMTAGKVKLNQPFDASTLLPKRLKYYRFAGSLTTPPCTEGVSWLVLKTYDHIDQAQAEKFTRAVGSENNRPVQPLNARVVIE
- experimentalProtocol: stopped-flow CO2 hydration
- Type: biochemical
- runParameters: read-out: Ki (μM)^a / NgCAα
Attribute: Ki
Please answer using the number first and the unit second.

Worked cases, Ki given:
Nc1ccc2c(C(F)(F)F)cc(=O)oc2c1 :: 97.1 µM
Cc1cc2ccc(O)cc2oc1=O :: 68 µM
O=c1ccc2ccccc2o1 :: 81.6 µM
CC(=O)c1cc2ccc(O)cc2oc1=O :: 395 µM
O=c1ccc2ccc(O)cc2o1 :: 77.1 µM

Per the records, this compound ( CC(=O)c1c(O)ccc2ccc(=O)oc12 [compound 9, 7-hydroxy-8-acetyl-coumarin] ) has Ki equal to 42.5 µM

Lab book: Ki of O=c1cc(O)c2ccc(O)cc2o1 noted as 77.6 µM

The compound identified as CCN(CC)c1ccc2c(C)cc(=O)oc2c1 registered its Ki at 28.6 µM

GET /value?item= CCOC(=O)c1cc2ccc(O)cc2oc1=O &field=Ki returns 395 µM

Ki measured on O=c1oc2ccccc2cc1O = 110 µM

Form field Ki, entry O=c1ccc2cc(O)ccc2o1 : 92.4 µM

Looking up CCOC(=O)Cc1cc(=O)oc2cc(O)ccc12 , I see its Ki listed as 469 µM

----------
- targetOrTestSystem: VchCAα (Vibrio cholerae)
- Construct: gene VC_A0274
- experimentalProtocol: stopped-flow CO2 hydration
- Assay type: biochemical
- runParameters: read-out: Ki (μM)^a / VchCAα; […] h preincubation at […] °C; […] HEPES pH […] NaClO4; prodrug, lactone hydrolysed by CA esterase activity
So basically, if Ki comes in under 70 µM it's Met, and if it's 70 µM or more it's Not met.

CC(=O)c1c(O)ccc2ccc(=O)oc12 [compound 9, 7-hydroxy-8-acetyl-coumarin] :: Met
CC(=O)c1cc2ccc(O)cc2oc1=O [compound 14, 14] :: Not met
O=c1cc(O)c2ccc(O)cc2o1 [compound 12, 12] :: Met
Cc1cc2ccc(O)cc2oc1=O [compound 10, 10] :: Met

Kindly consider the entry below.
Could you please tell me whether Ki recorded for O=c1cc(O)c2ccccc2o1 [compound 4, 4] is less than 70 µM?
Not met

----------
- targetOrTestSystem: hCA II (Homo sapiens, UniProt P00918)
- Construct: gene CA2; recombinant, obtained in-house as described earlier
- experimentalProtocol: stopped-flow CO2 hydration
- Assay type: biochemical
testReadout: Ki
In your response, put the unit directly after the numeric value.

Per the record, O=c1cc(O)c2ccccc2o1 has Ki of 513 µM

----------
- targetOrTestSystem: hCA II (Homo sapiens)
- Construct: gene CA2; recombinant, obtained in-house as described earlier
- experimentalProtocol: stopped-flow CO2 hydration
- Format: biochemical
- runParameters: read-out: Ki (μM)^a / hCA II
Reported Ki values follow for various compounds
Form entry: value (µM) — number only.

CCOC(=O)c1cc2ccc(O)cc2oc1=O :: 961

Quick note, Ki for Nc1ccc2c(C(F)(F)F)cc(=O)oc2c1 landed at 733

Consider CC(=O)c1c(O)ccc2ccc(=O)oc12 [compound 9, 7-hydroxy-8-acetyl-coumarin] . Its measured Ki is 646

O=c1cc(O)c2ccc(O)cc2o1 yielded Ki of 758

Ki measured on Cc1cc2ccc(O)cc2oc1=O = 297

Entry under test: CCN(CC)c1ccc2c(C)cc(=O)oc2c1 . Its Ki was 559

Field Ki (entry CCOC(=O)Cc1cc(=O)oc2cc(O)ccc12 ) reads 876

So, O=c1ccc2cc(O)ccc2o1 ? Its Ki was 683

// field: Ki; key: O=c1oc2ccccc2cc1O ; value = 625

Ki for CC(=O)c1cc2ccc(O)cc2oc1=O is 786

----------
- targetOrTestSystem: hCA I (Homo sapiens, UniProt P00915)
- Construct: gene CA1; recombinant, obtained in-house as described earlier
- Sequence (P00915 2-261): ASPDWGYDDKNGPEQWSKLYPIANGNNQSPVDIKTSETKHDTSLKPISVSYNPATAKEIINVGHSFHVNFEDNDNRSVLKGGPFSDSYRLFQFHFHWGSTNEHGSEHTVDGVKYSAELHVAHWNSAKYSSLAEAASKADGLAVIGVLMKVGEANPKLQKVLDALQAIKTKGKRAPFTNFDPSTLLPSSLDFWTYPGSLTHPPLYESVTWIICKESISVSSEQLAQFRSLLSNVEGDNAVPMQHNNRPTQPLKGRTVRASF
- experimentalProtocol: stopped-flow CO2 hydration
- Format: biochemical
testReadout: Ki (µM)
Give the value in µM but do not write µM after it.

Value of measured Ki for the entry O=c1cc(O)c2ccccc2o1 : 394

----------
- targetOrTestSystem: hCA I (Homo sapiens)
- Construct: gene CA1; recombinant, obtained in-house as described earlier
- experimentalProtocol: stopped-flow CO2 hydration
- Assay type: biochemical
- runParameters: read-out: Ki (μM)^a / hCA I
testReadout: Ki (µM)
Answer with a number only, understood to be in µM.

Nc1ccc2c(C(F)(F)F)cc(=O)oc2c1 yielded Ki of 940

For reference, reported Ki for CC(=O)c1c(O)ccc2ccc(=O)oc12 [compound 9, 7-hydroxy-8-acetyl-coumarin] stands at 949

The reported value for O=c1oc2ccccc2cc1O in terms of Ki is 490

Ki reading for CCOC(=O)c1cc2ccc(O)cc2oc1=O : 900

----------
The following compounds are listed with their measured Ki values.
- targetOrTestSystem: hCA I (Homo sapiens, UniProt P00915)
- Construct: gene CA1; recombinant, obtained in-house as described earlier
- experimentalProtocol: stopped-flow CO2 hydration
- Assay type: biochemical
- runParameters: read-out: Ki (μM)^a / hCA I
Answer format: numeric, µM implied, no suffix.

O=c1ccc2cc(O)ccc2o1 [compound 2, 2] :: 192
CC(=O)c1cc2ccc(O)cc2oc1=O [compound 14, 14] :: 470
Cc1cc2ccc(O)cc2oc1=O [compound 10, 10] :: 137
CCOC(=O)Cc1cc(=O)oc2cc(O)ccc12 [compound 11, 11] :: 749
CCN(CC)c1ccc2c(C)cc(=O)oc2c1 [compound 8, 4-methyl-7-diethylamino-coumarin] :: 517

Turning to the following compound.
The reported value for O=c1cc(O)c2ccc(O)cc2o1 [compound 12, 12] in terms of Ki is 182
